# assay.explanation: Lipophilicity, Log P of the compound
# Assay type: physicochemical
# protocol.conditions: octanol/water

[
  {
    "molecule": "C[C@H]1[C@@H](OCCOc2ccc(-c3ccccc3)cc2)O[C@@H]2C[C@@]3(C)CC[C@H]4[C@H](C)CC[C@@H]1[C@@]24OO3",
    "logP": 6.85
  },
  {
    "molecule": "C[C@@H]1CC[C@H]2[C@@H](C)C(OC3C4CC5CC(C4)CC3C5)O[C@@H]3O[C@@]4(C)CC[C@@H]1[C@]32OO4 (stereo partly drawn)",
    "logP": 5.51
  },
  {
    "molecule": "CCO[C@@H]1O[C@@H]2O[C@]3(C)CC[C@H]4[C@H](C)CC[C@@H]([C@H]1C)[C@@]24OO3 [ALPHA-ARTEETHER]",
    "logP": 3.84
  }
]

---

# System: Plasmodium yoelii nigeriensis
# assay.explanation: Antimalarial activity as cures against multidrug-resistant Plasmodium yoelii nigeriensis infected Swiss mice (Mus musculus) at 48 mg/kg peroral dose over 4 days
# Type: functional
# protocol.conditions: route oral
experimental.endpoint: Activity (%)

[
  {
    "compound": "C[C@H]1[C@@H](OCCOc2ccc(-c3ccccc3)cc2)O[C@@H]2C[C@@]3(C)CC[C@H]4[C@H](C)CC[C@@H]1[C@@]24OO3",
    "experimental.endpoint": "Activity",
    "quantity.unit": "%",
    "quantitative.readout": 100
  },
  {
    "compound": "C[C@H]1[C@H](OCc2ccc(-c3ccccc3)cc2)O[C@@H]2O[C@@]3(C)CC[C@H]4[C@H](C)CC[C@@H]1[C@@]24OO3",
    "experimental.endpoint": "Activity",
    "quantity.unit": "%",
    "quantitative.readout": 100
  },
  {
    "compound": "C[C@H]1[C@@H](OCCC2C3CC4CC(C3)CC2C4)O[C@@H]2O[C@@]3(C)CC[C@H]4[C@H](C)CC[C@@H]1[C@@]24OO3 (stereo partly drawn)",
    "experimental.endpoint": "Activity",
    "quantity.unit": "%",
    "quantitative.readout": 100
  }
]

---

# Test system: Plasmodium yoelii nigeriensis
# assay.explanation: Antimalarial activity as cures against multidrug-resistant Plasmodium yoelii nigeriensis infected Swiss mice (Mus musculus) at 48 mg/kg peroral dose over 4 days
# Format: functional
# protocol.conditions: route oral
Parameter: Activity. Scope: all listed entries.

[
  {
    "molecule": "C[C@H]1[C@H](OCCC23CC4CC(CC(C4)C2)C3)O[C@@H]2O[C@@]3(C)CC[C@H]4[C@H](C)CC[C@@H]1[C@@]24OO3",
    "Activity, %": 100
  },
  {
    "molecule": "C[C@H]1[C@@H](OCCC23CC4CC(CC(C4)C2)C3)O[C@@H]2O[C@@]3(C)CC[C@H]4[C@H](C)CC[C@@H]1[C@@]24OO3",
    "Activity, %": 100
  },
  {
    "molecule": "C[C@H]1[C@@H](OCCOc2ccccc2-c2ccccc2)O[C@@H]2C[C@@]3(C)CC[C@H]4[C@H](C)CC[C@@H]1[C@@]24OO3",
    "Activity, %": 100
  },
  {
    "molecule": "C[C@H]1[C@H](OCC2c3ccccc3-c3ccccc32)O[C@@H]2C[C@@]3(C)CC[C@H]4[C@H](C)CC[C@@H]1[C@@]24OO3",
    "Activity, %": 100
  },
  {
    "molecule": "C[C@@H]1CC[C@H]2[C@@H](C)C(OC3C4CC5CC(C4)CC3C5)O[C@@H]3O[C@@]4(C)CC[C@@H]1[C@]32OO4 (some centres not stated)",
    "Activity, %": 100
  },
  {
    "molecule": "C[C@@H]1CC[C@H]2[C@@H](C)C(OCC34CC5CC(CC(C5)C3)C4)O[C@@H]3O[C@@]4(C)CC[C@@H]1[C@]32OO4 (some centres not stated)",
    "Activity, %": 100
  },
  {
    "molecule": "C[C@H]1[C@H](OCCOc2ccccc2-c2ccccc2)O[C@@H]2C[C@@]3(C)CC[C@H]4[C@H](C)CC[C@@H]1[C@@]24OO3",
    "Activity, %": 100
  },
  {
    "molecule": "C[C@@H]1CC[C@H]2[C@@H](C)C(OCCC3c4ccccc4-c4ccccc43)O[C@@H]3C[C@@]4(C)CC[C@@H]1[C@]32OO4 (some centres not stated)",
    "Activity, %": 100
  },
  {
    "molecule": "CCO[C@@H]1O[C@@H]2O[C@]3(C)CC[C@H]4[C@H](C)CC[C@@H]([C@H]1C)[C@@]24OO3",
    "Activity, %": 100
  },
  {
    "molecule": "C[C@H]1[C@@H](OCCc2ccc(-c3ccccc3)cc2)O[C@@H]2O[C@@]3(C)CC[C@H]4[C@H](C)CC[C@@H]1[C@@]24OO3",
    "Activity, %": 100
  },
  {
    "molecule": "C[C@H]1[C@@H](OCC2c3ccccc3-c3ccccc32)O[C@@H]2C[C@@]3(C)CC[C@H]4[C@H](C)CC[C@@H]1[C@@]24OO3",
    "Activity, %": 100
  },
  {
    "molecule": "C[C@H]1[C@@H](OCc2ccccc2-c2ccccc2)O[C@@H]2O[C@@]3(C)CC[C@H]4[C@H](C)CC[C@@H]1[C@@]24OO3",
    "Activity, %": 100
  }
]
